# experimental-system: T1, human GIP receptor (human) (UniProt P48546)
# T1 sequence (looked up): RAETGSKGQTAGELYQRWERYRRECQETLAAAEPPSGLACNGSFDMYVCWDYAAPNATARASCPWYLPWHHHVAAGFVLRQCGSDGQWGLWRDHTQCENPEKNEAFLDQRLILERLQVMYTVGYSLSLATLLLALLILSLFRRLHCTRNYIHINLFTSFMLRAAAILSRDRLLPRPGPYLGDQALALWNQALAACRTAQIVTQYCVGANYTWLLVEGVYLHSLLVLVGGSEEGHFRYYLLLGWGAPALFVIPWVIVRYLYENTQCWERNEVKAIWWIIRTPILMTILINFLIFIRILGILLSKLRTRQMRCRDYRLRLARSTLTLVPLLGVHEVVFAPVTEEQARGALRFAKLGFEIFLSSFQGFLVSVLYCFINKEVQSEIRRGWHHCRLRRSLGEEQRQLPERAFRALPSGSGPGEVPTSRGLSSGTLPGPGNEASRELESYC
# test-summary: cell-based or functional assay
Starred links: 1 amine or outer side, 2 acyl side, 3 side chain; linkers in the order of their positions; H or OH if unused. Non-standard residues stand in square brackets, D forms with d. Groups on a side chain read outwards from the residue. No end group written: not given here. *: point of attachment. C20 diacid = O=C(O)CCCCCCCCCCCCCCCCCCC(=O)*; αMePhe(2-F) = C[C@](N)(Cc1ccccc1F)C(=O)O; γGlu = O=C(O)[C@H](CCC(=O)[*:2])N[*:1]; AEEA = NCCOCCOCC(=O)O; Aib = CC(C)(N)C(=O)O
Let's look at some binders and their measured Relative cAMP EC50.
Number first, unit second.

Query: In one line, give reported Relative cAMP EC50 of the entry YXQGTXTSDXXIXLDXKAQXEFIEXLIEGGPSSXAPPPEGE (non-natural residues; AEEA-γGlu-C18 diacid on Lys; C-terminal amide; synthetic construct; SITE 2: note = 2-Aminoisobutyric Acid; SITE 6: note = alpha-methyl-2-fluoro-L-phenylalanine; SITE 10: note = 3-(4-Pyridyl)-L-alanine; SITE 11: note = alpha-methyl-L-serine; SITE 13: note = alpha-methyl-leucine; SITE 16: note = L-ornithine; SITE 17: note = Lysine is chemically mo) [Example 1192] .
Reply: 0.00924 nM

Query: Recall and state the measured Relative cAMP EC50 for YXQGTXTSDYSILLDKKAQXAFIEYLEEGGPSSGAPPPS (synthetic construct; SITE 2: note = 2-Aminoisobutyric Acid; SITE 6: note = alpha-methyl-2-fluoro-L-phenylalanine; SITE 17: note = Lysine is chemically modified through conjugation of the epsilon-amino group of the Lysine side chain with (gamma-Glu)2-CO-(CH2)16-CO2H; SITE 20: note = 2-Aminoisobutyric) [Example 406] .
Reply: 0.0233 nM

Query: For the binder YXQGTFTSDXSQXLDKKAQXAFIEYLLEAGPSSGAPPPSGT (synthetic construct; SITE 2: note = 2-Aminoisobutyric Acid; SITE 10: note = 3-(4-Pyridyl)-L-alanine; SITE 13: note = alpha-methyl-leucine; SITE 17: note = Lysine is chemically modified through conjugation of the epsilon-amino group of the Lysine side chain with (2-[2-(2-Amino-ethoxy)-ethoxy]-acetyl)) [Example 823] , give its reported Relative cAMP EC50.
Reply: 0.171 nM

Query: Give recorded Relative cAMP EC50. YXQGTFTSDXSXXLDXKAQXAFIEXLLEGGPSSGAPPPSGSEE (non-natural residues, Glu-γGlu-C18 diacid acylation, C-terminal amide; synthetic construct; SITE 2: note = 2-Aminoisobutyric Acid; SITE 10: note = 3-(4-Pyridyl)-L-alanine; SITE 12: note = L-ornithine; SITE 13: note = alpha-methyl-leucine; SITE 16: note = L-ornithine; SITE 17: note = Lysine is chemically modified through conjugation of the epsilon-amino group of the Lys) [Example 1066]
Reply: 0.446 nM

Query: Return value of Relative cAMP EC50 for input YXQGTXTSDXSIXLDXKAQXEFIEXLAEGGPSSGAPPPSGS (Aib, αMeF(2F), 4Pal, Orn, Me4Pal, αMeY; K (γGlu)2-C18 diacid; amide; synthetic construct; SITE 2: note = 2-Aminoisobutyric Acid; SITE 6: note = alpha-methyl-2-fluoro-L-phenylalanine; SITE 10: note = 3-(4-Pyridyl)-L-alanine; SITE 13: note = alpha-methyl-leucine; SITE 16: note = L-ornithine; SITE 17: note = Lysine is chemically modified through conjugation of the epsil) [Example 646] , no commentary.
Reply: 0.0336 nM

Query: Output measured Relative cAMP EC50 for this item: Y[Aib]QGT[αMePhe(2-F)]TSDYSILLDKIAQK([AEEA-γGlu-C20 diacid])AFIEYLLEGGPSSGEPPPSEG-NH2 [Example 293]
Reply: 0.0587 nM
